test system: MS2 coat protein; assay: apparent KD of MS2 coat protein; designed switch direction (-1 OFF switch, 1 ON switch): -1; higher = weaker reporter binding; settings: input ligand: FMN 200 uM
Classify by measured apparent KD of MS2 coat protein: yes (1) if it is equal to or exceeds 20 nM, no (0) if it is smaller.

# seq-text, class-label
rows = [
    ("UUGAUACAUGAGGAUCACCCAUGUUAGGAUAUACGCAUGCAUGCAUGCAUGCAUGCAAGUAGAAGGAACCAUGC [Design #1] (Eterna round: R97, puzzle: Exclusion 1)", "yes (1)"),
]

Challenge: Evaluate GCACAGUGAGGAUAUACAUGAGGAUCACCCAUGUCCGCCGAUUAAGAGGUAUCAACGUGUAGAAGGUACCAGCG [Eternabot (Original) Solution 25] (Eterna round: R97, puzzle: Exclusion 3) : apparent KD of MS2 coat protein at minimum 20 nM?
Response given: no (0)

Challenge: Evaluate GGACAGGGAGGAUAUACUUGAGGAUCACCCAAGUCGUAUAAUCGAUGAACACGCCGAAGUAGAAGGCCCAAAAG [Esorgebi] (Eterna round: R97, puzzle: Exclusion 3) : apparent KD of MS2 coat protein at minimum 20 nM?
Response given: yes (1)

Challenge: Evaluate AACCUGAGGCAAAGCUUUAGGUGUACAUGAGGAUCACCCAUGUAGGAUAUGGUAGGCAAAGCUUACCAGAAGGACAUAAUGAUG [Mat - Exclusion NG 3 - Mod of JL - D47] (Eterna round: R96, puzzle: Exclusion NG 3) : apparent KD of MS2 coat protein at minimum 20 nM?
Response given: yes (1)

Challenge: Evaluate AGAGAGUCAGGAUAUGACGAAGAGAACAUGAGGAUCACCCAUGUUGCUUCGUUUUUAUCGUCAGAAGGGACGAACU [JR_Ex5_Sub088] (Eterna round: R97, puzzle: Exclusion 5) : apparent KD of MS2 coat protein at minimum 20 nM?
Response given: no (0)

###

Measured apparent KD of MS2 coat protein of individual entries
system: MS2 coat protein; experiment: apparent KD of MS2 coat protein, switch ON state; designed switch direction (-1 OFF switch, 1 ON switch): -1; higher = weaker reporter binding; conditions: FMN input: 0 or 200 uM; Eterna round: R93 (includes R88 designs)
Please reply with the bare figure in nM and do not write the unit itself.

# seq-text, assayed-system, measurement-units, measured-value
records = [
    ("UCCACACAUGAGGAUCACCCAUGUGAGGAUAUCUAGAAAACCUCAUGUAAAAAAAUCUAGAGAAGGCAUAUGAA [Design 91: Pseudoknot A]", "MS2 coat protein", "nM", 24.1),
    ("AGUUGGCGAGGAUAUACAUGAGGAUCACCCAUGUAAAAUAAAUAAAAAAUAAAAGGGAGUAGAAGGCGCUGACA [73%, Moding Norbert Elias, 16]", "MS2 coat protein", "nM", 41.9),
]

Challenge: # get_value(readout='apparent KD of MS2 coat protein', item= AAGAACUGAGGAUAUACUAAAGAAAUGAAAAGAAAGAAAGAACAUGAGGAUCACCCAUGUAGAAGGCAGAAGAA [Ya'ammu Nubwoserre] )
Response given: 29.9

Challenge: # get_value(readout='apparent KD of MS2 coat protein', item= AAGAAGGCAGGAUAUACAAAAUAAAAGAAAAGAAAGAAAGAACAUGAGGAUCACCCAUGUAGAAGGGUCAAGAA [Sankhenre Sewadjtu] )
Response given: 47.9

Challenge: # get_value(readout='apparent KD of MS2 coat protein', item= AAUAAAGCAGGAUAUACUAAAGAAAUGAAAAGAAAUAAAGAACAUGAGGAUCACCCAUGUAGAAGGGCUAAUAA [Semqen] )
Response given: 42.8

Challenge: # get_value(readout='apparent KD of MS2 coat protein', item= AAAAAGGCAGGAUAUACGAACAUGUCGAAAGACGUGAAGGGACAUGAGGAUCACCCAUGUAGAAGGGUCAAGAA [Mat - Exclusion 2 - JL mod - D76] )
Response given: 90.8

Challenge: # get_value(readout='apparent KD of MS2 coat protein', item= AAAUUGUCAGGAUAUCGUAUAAUAUGGAAAACAUAGAGAUACGAGAAGGGACAUGAGGAUCACCCAUGUAAAAC [May 96] )
Response given: 36.1

Challenge: # get_value(readout='apparent KD of MS2 coat protein', item= AACAAGUCAGGAUAUUCGACAAGUAAAUAAGUAAAUCAAAAGAAGAAGGGACAUGAGGAUCACCCAUGUAAAUA [JR_Exc004_Sub401] )
Response given: 32.5

Challenge: # get_value(readout='apparent KD of MS2 coat protein', item= AGGUUGUCAGGAUAUGCGUGAAGAAUAAAACAAAUAACAACGCAGAAGGGACAUGAGGAUCACCCAUGUAACCA [May 53] )
Response given: 35.6

Challenge: # get_value(readout='apparent KD of MS2 coat protein', item= AGAGGACAUGAGGAUCACCCAUGUGAGGAUAUGCACAACUAAGGACAAGAUCGCUAUAGCAGAAGGCACGUACU [JR_EXc001_Sub809] )
Response given: 39.3

Challenge: # get_value(readout='apparent KD of MS2 coat protein', item= CUCUUGUGAGGAUAUCUAAGAAAAGAAGAGAAAGAAAAGAAAGAGAAGGCACAUGAGGAUCACCCAUGUAAGAA [EteRNA is fun!] )
Response given: 29

Challenge: # get_value(readout='apparent KD of MS2 coat protein', item= GAAGAACAUGAGGAUCACCCAUGUCAGGAUAUACAGAAGGGAAUAAUAUAACCUGGAAGUAGAAGGGACAAGAA [Ex 1 May 44] )
Response given: 30.2

Challenge: # get_value(readout='apparent KD of MS2 coat protein', item= AGGCGGGUAGGAUAUGCGUACUGACGGGAAAACUGAAUGGUACAUGAGGAUCACCCAUGUAGAAGGGCUCUGAA [Dora Explored 23 - Jieux - Exclusion 2] )
Response given: 67.1

###

test system: MS2 coat protein; test: apparent KD of MS2 coat protein; designed switch direction (-1 OFF switch, 1 ON switch): 1; higher = weaker reporter binding; settings: input ligand: microRNA oligo, concentration not stated
quantity-measured: apparent KD of MS2 coat protein (nM)
Please reply with the bare figure in nM and do not write the unit itself.

Answered cases to consult:
# seq-text, quantity-measured, measurement-units, measured-value
data = [
    ("AGAUCAUGACGAGGAUAUGGAACAUGAGGAUCACCCAUGUAUGUUCCAUAACGCGAACGACGAAUCCAGAAGGCGUCGUGAUCA [Mat - Same State NG 2 - JL mod - D42] (Eterna round: R96, puzzle: Same State NG 2)", "apparent KD of MS2 coat protein", "nM", 21.6),
    ("GUUACAUGAGGAUCACCCAUGUAUGUGUGGGAGUAAGUGUCUUAGGAUAUCUAGUAUUUAGUUUAAGAGAAGGAAGAUUGUUGU [JMF's solution 61] (Eterna round: R96, puzzle: Same State NG 3)", "apparent KD of MS2 coat protein", "nM", 90),
    ("GCGGAACCUAACAUGAGGAUCACCCAUGUUCCGGAAACGGCACAGGAUAUCUGUCCGAAAAGGUCAGAGAAGGGUGAAAACCGC [Fiskers NG3ss - 95] (Eterna round: R96, puzzle: Same State NG 3)", "apparent KD of MS2 coat protein", "nM", 307),
]

Now consider the entry below.
Challenge: # get_value(readout='apparent KD of MS2 coat protein', item= UUAACAUGAGGAUCACCCAUGUAUAGGGAGUUAACAAUUGGACAGGAUAUUGAAGAUGUAGAUAGCAAGAAGGGUCGGUAGUCU [JR_SSNG3_Sub001] (Eterna round: R96, puzzle: Same State NG 3) )
Response given: 30

###

tested on: K4 kissing-loop RNA reporter; test: apparent KD of K4 kissing-loop reporter; higher = weaker reporter binding; conditions: Eterna round: R107; input ligand: none;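 note: bound reporter read as fluorescence of individual clusters on recovered sequencing chips by microscopy, with normalized cluster intensities fitted with a binding model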
Classify by measured apparent KD of K4 kissing-loop reporter: T if it is equal to or exceeds 400 nM, F if it is smaller.

Answered cases to consult:
# seq-text, class-label
measured = [
    ("UAAUGCAUGACGGCCGCCACUAGUACUGGAGUGAUGUUGUGGUACGGCGGCAGUAUAGGGUGGACUAGGACCGGGUCAUGCAUAU [KL-XTryp-B11 #analogue]", "T"),
    ("GCUAUGGUAGGAAGGAGCGCUACUUUGUUUUUACGAGUGAUGUUCGGUAGCAGAGUGUUAAAGCAGGUAGGUCGCCUACUAUAGC [Arginine B K4 19]", "F"),
    ("AGUCCACUCUAAAGAGUGGACCUAAGGGAUACCAGUGAUGUUGGUCACCCUUGGCAGCCCACUGUCAUCGAUAAAGAUGGCAGAA", "F"),
    ("CAUUCGAAAUGCAGUGAUGUUGCAACCGAUACCAGUAUCGAAAGAUACCCUUGGCAGCGGAAAACCGCUACGUAUUUUUUGAAUG [Ex Theophylline A K4 26]", "F"),
    ("UGACUACAGGAAUAAUAAUCCUAGUGAUGUUAGGAUAUGCUGAUAAGCAGAAGGAACUGAGAUCGAAAGAUCUCAAAAGUAGUCU [FmnAX 28 Mat Inspired #SwitchBubble #StaticStem #K4Early]", "F"),
]

Challenge: Evaluate AAUCAAUACAGAAGGAGCGUGACAUUUGCUAUUGUAAUUUUAGCUAGUGAUGUUAGCAUUUCACAGGUAGGUCGCUGUACAUUUA [JR_SSArginiB_Sub010] : apparent KD of K4 kissing-loop reporter at minimum 400 nM?
Response given: F

Challenge: Evaluate CGAGAAAGAGCGACUGGCGAUCUGUCUGAAGGAGCGGGUGCUAGCCCAGGUAGGUCGCAGACCUUGACGCCAGUGAUGUUGGCGG [Ritiatso] : apparent KD of K4 kissing-loop reporter at minimum 400 nM?
Response given: F

Challenge: Evaluate CUGACCAACAGCGAUACCAGUGUGGAGUGAUGUUCCCUGGUCCGGGCUGAUGUUCCCUUGCGCCCUUGGCAGCGCAGAAGCAGGU [Exclusion Theophylline B GF 13] : apparent KD of K4 kissing-loop reporter at minimum 400 nM?
Response given: F

Challenge: Evaluate AAGGCCACGAGAAGGAGCGUGCUAUGGAGUGAUGUUCCAAUGUAGACCUAAGGUCUACAAGCACAGGUAGGUCGCUCGUGGUCAA [Omei KL Arginine B SS A v2] : apparent KD of K4 kissing-loop reporter at minimum 400 nM?
Response given: F

Challenge: Evaluate UGUACCGAGUCAGGAUAUGGCGUCGAAAGACGAAACCAGUGAUGUUGGAAUCGAUCGAAAGAUCGUCCAGAAGGGACUUGGUACU [FmnBS 21 #SwitchBubble #StaticStem #DoubleMagnetSystem] : apparent KD of K4 kissing-loop reporter at minimum 400 nM?
Response given: F

Challenge: Evaluate AGUACAACUGCGGCCGCCACUCAACGCAGAUCAAAGAUCUGCAUUCACUCAGUGAUGUUGAGUGAGAGGACCGGGCAGUUGUACA [Omei KL Tryp B SS B v3] : apparent KD of K4 kissing-loop reporter at minimum 400 nM?
Response given: T
